assay-system: MsSCP-2 (Manduca sexta)
Sequence (D8VD27 entry or part of it): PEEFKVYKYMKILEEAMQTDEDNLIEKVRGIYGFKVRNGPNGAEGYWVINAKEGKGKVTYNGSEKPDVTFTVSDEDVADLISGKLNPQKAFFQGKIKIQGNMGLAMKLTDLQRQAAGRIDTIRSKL
assay-procedure: biochemical
quantity-name: EC50
Write your answer as a measured quantity: the number, then the unit.

>>> print(df.to_string())
                                   compound  quantity_name  reported_result
0  CC(=O)Nc1ccc(Nc2nc(-c3ccc(Cl)c(Cl)c3)cs2)cc1 [SCPI-1]           EC50           2.2 µM

// moving on: another record for EC50
Request: Recorded EC50 of COc1cccc(-n2sc3c(c2=S)-c2cc(Cl)ccc2NC3(C)C)c1 [SCPI-2] , please.
Response: 0.9 µM

###

assay-system: MsSCP-2 (Manduca sexta)
assay-procedure: NBD-cholesterol binding assay, recombinant MsSCP-2
condition-set: NBD-cholesterol 1 μM, MsSCP-2 1 nM~10 μM, one site binding non-linear regression; read-out: binding affinity (Kd) of MsSCP-2 to NBD-cholesterol
Experimental: MsSCP-2 binding affinity for NBD-cholesterol, an analog of cholesterol, was determined using NBD-cholesterol binding assays. […] Twenty-five microliters of each concentration of MsSCP-2 solution and the control (without MsSCP-2) were thoroughly mixed with 25 μl of NBD-cholesterol solution (1 μM in KHPO4 buffer, pH 7.4) and allowed to equilibrate for 3 minutes to permit stable measurement of the fluorescence signal. […]
quantity-name: Kd
Write your answer as a measured quantity: the number, then the unit.

Request: Recorded Kd of `C[C@H](CNc1ccc([N+](=O)[O-])c2nonc12)[C@H]1CC[C@H]2[C@@H]3CC=C4C[C@@H](O)CC[C@]4(C)[C@H]3CC[C@]12C` , please.
Response: 1860 nM

###

assay-system: AeSCP-2 (Aedes aegypti)
Sequence (Q86PR3 1-110): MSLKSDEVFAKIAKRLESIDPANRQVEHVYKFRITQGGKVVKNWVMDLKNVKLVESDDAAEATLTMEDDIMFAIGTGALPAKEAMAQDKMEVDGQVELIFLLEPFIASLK
assay-procedure: biochemical
quantity-name: EC50 (nM)
Respond numerically; units are nM and should not be typed.

>>> df
                    structure_smiles_string  quantity_unit  reported_result
0  CC(=O)Nc1ccc(Nc2nc(-c3ccc(Cl)c(Cl)c3)cs2)cc1             nM              900

// moving on: another record for EC50
Request: Recorded EC50 of `COc1cccc(-n2sc3c(c2=S)-c2cc(Cl)ccc2NC3(C)C)c1` , please.
Response: 800
